# Lookup of reported Ki keyed by entry
TARGET_OR_SYSTEM: Trypsin (Homo sapiens, UniProt P07477+P07478+P35030)
MEASUREMENT_NOTES: The inhibition constant against human trypsin
Assay type: protein assay

- COMPOUND: "N=C(N)N1CCc2ccc(OC(C(=O)O)c3ccc(OC4CCOCC4)cc3)cc2C1 (stereo not drawn)"
  Ki, nM: 12000
- COMPOUND: "N=C(N)N1CCC(Oc2ccc(C(Oc3ccc4c(c3)CN(C(=N)N)CC4)C(=O)O)cc2)CC1 (stereo not drawn)"
  Ki, nM: 200
- COMPOUND: "CCOC(=O)C(Oc1ccc2c(c1)CN(C(=N)N)CC2)c1ccc(OC2CCN(C(=N)CC)CC2)cc1 (stereo not drawn)"
  Ki, nM: 80

---

TARGET_OR_SYSTEM: UniProtKB P00734
# Lookup of reported Ki keyed by entry
PROPERTY: Ki (µM)

- COMPOUND: "CCOC(=O)C(Oc1ccc2c(c1)CN(C(=N)N)CC2)c1ccc(O[C@H]2CCN(C(=N)N)C2)cc1 (stereo partly drawn)"
  TARGET_OR_SYSTEM: "UniProtKB P00734"
  PROPERTY: "Ki"
  LIMIT_OPERATOR: "="
  MEASURED_RESULT: 13
- COMPOUND: "N=C(N)N1CCc2ccc(OC(C(=O)O)c3ccc(OC4CCNCC4)cc3)cc2C1 (stereo not drawn)"
  TARGET_OR_SYSTEM: "UniProtKB P00734"
  PROPERTY: "Ki"
  LIMIT_OPERATOR: ">"
  MEASURED_RESULT: 100
- COMPOUND: "CCOC(=O)C(Oc1ccc2c(c1)CN(C(=N)N)CC2)c1ccc(OC2CCN(C(=N)c3ccc(OC)cc3)CC2)cc1 (stereo not drawn)"
  TARGET_OR_SYSTEM: "UniProtKB P00734"
  PROPERTY: "Ki"
  LIMIT_OPERATOR: "="
  MEASURED_RESULT: 5
- COMPOUND: "CCOC(=O)C(Oc1ccc2c(c1)CN(C(=N)N)CC2)c1ccc(OC2CCN(C(=N)N)CC2)cc1 (stereo not drawn)"
  TARGET_OR_SYSTEM: "UniProtKB P00734"
  PROPERTY: "Ki"
  LIMIT_OPERATOR: "="
  MEASURED_RESULT: 8
- COMPOUND: "C=CCN1CC[C@H](Oc2ccc(C(Oc3ccc4c(c3)CN(C(=N)N)CC4)C(=O)OCC)cc2)C1 (stereo partly drawn)"
  TARGET_OR_SYSTEM: "UniProtKB P00734"
  PROPERTY: "Ki"
  LIMIT_OPERATOR: ">"
  MEASURED_RESULT: 100
- COMPOUND: "C=CCOC(=O)N1CC[C@H](Oc2ccc(C(Oc3ccc4c(c3)CN(C(=N)N)CC4)C(=O)OCC)cc2)C1 (stereo partly drawn)"
  TARGET_OR_SYSTEM: "UniProtKB P00734"
  PROPERTY: "Ki"
  LIMIT_OPERATOR: ">"
  MEASURED_RESULT: 100
- COMPOUND: "CCOC(=O)C(Oc1ccc2c(c1)CN(C(=N)N)CC2)c1ccc(OC2CCN(C(=N)CC)CC2)cc1 (stereo not drawn)"
  TARGET_OR_SYSTEM: "UniProtKB P00734"
  PROPERTY: "Ki"
  LIMIT_OPERATOR: "="
  MEASURED_RESULT: 20
- COMPOUND: "CCOC(=O)C(Oc1ccc2c(c1)CN(C(=N)N)CC2)c1ccc(O[C@H]2CCN(C(C)=N)C2)cc1 (stereo partly drawn)"
  TARGET_OR_SYSTEM: "UniProtKB P00734"
  PROPERTY: "Ki"
  LIMIT_OPERATOR: ">"
  MEASURED_RESULT: 100

---

# Lookup of reported Ki keyed by entry
TARGET_OR_SYSTEM: Prothrombin (Homo sapiens, UniProt P00734)

- MOLECULE: "N=C(N)N1CCc2ccc(OC(C(=O)O)c3ccc(OC4CCOCC4)cc3)cc2C1 (stereo unspecified)"
  Ki: "> 100 µM"
- MOLECULE: "CCOC(=O)C(Oc1ccc2c(c1)CN(C(=N)N)CC2)c1ccc(OC2CCNCC2)cc1 (stereo unspecified)"
  Ki: "16 µM"
- MOLECULE: "CC(=O)N1CCC(Oc2ccc(C(Oc3ccc4c(c3)CN(C(=N)N)CC4)C(=O)O)cc2)CC1 (stereo unspecified)"
  Ki: "> 100 µM"
- MOLECULE: "CCOC(=O)C(Oc1ccc2c(c1)CN(C(=N)N)CC2)c1ccc(OC2CCOCC2)cc1 (stereo unspecified)"
  Ki: "8 µM"
- MOLECULE: "N=C(N)N1CCc2ccc(OC(C(=O)O)c3ccc(O[C@H]4CCNC4)cc3)cc2C1 (stereo partly specified)"
  Ki: "> 100 µM"
- MOLECULE: "CCOC(=O)C(Oc1ccc2c(c1)CN(C(=N)N)CC2)c1ccc(O[C@H]2CCNC2)cc1 (stereo partly specified)"
  Ki: "> 100 µM"

---

TARGET_OR_SYSTEM: Trypsin (Homo sapiens, UniProt P07477+P07478+P35030)
MEASUREMENT_NOTES: The inhibition constant against human trypsin
Type: protein assay
Note to self: Ki under 3 µM means TRUE, ties and anything higher get FALSE.

- MOLECULE: "CCOC(=O)C(Oc1ccc2c(c1)CN(C(=N)N)CC2)c1ccc(OC2CCN(C(=N)N)CC2)cc1 (configuration not stated)"
  ANSWER_LABEL: "TRUE"
- MOLECULE: "CCOC(=O)C(Oc1ccc2c(c1)CN(C(=N)N)CC2)c1ccc(O[C@H]2CCNC2)cc1 (some centres not stated)"
  ANSWER_LABEL: "FALSE"
- MOLECULE: "CC(=N)N1CC[C@H](Oc2ccc([C@H](Cc3ccc4ccc(C(=N)N)cc4c3)C(=O)O)cc2)C1.Cl [DX-9065A HYDROCHLORIDE HYDRATE]"
  ANSWER_LABEL: "TRUE"
- MOLECULE: "N=C(N)N1CCc2ccc(OC(C(=O)O)c3ccc(OC4CCNCC4)cc3)cc2C1 (configuration not stated)"
  ANSWER_LABEL: "FALSE"
- MOLECULE: "COc1ccc(C(=N)N2CCC(Oc3ccc(C(Oc4ccc5c(c4)CN(C(=N)N)CC5)C(=O)O)cc3)CC2)cc1 (configuration not stated)"
  ANSWER_LABEL: "TRUE"
- MOLECULE: "CC(=N)N1CC[C@H](Oc2ccc(C(Oc3ccc4c(c3)CN(C(=N)N)CC4)C(=O)O)cc2)C1 (some centres not stated)"
  ANSWER_LABEL: "FALSE"
- MOLECULE: "CCOC(=O)C(Oc1ccc2c(c1)CN(C(=N)N)CC2)c1ccc(OC2CCN(C(C)=N)CC2)cc1 (configuration not stated)"
  ANSWER_LABEL: "TRUE"
- MOLECULE: "CC1(C)CC(=O)C=C(N2CC[C@H](Oc3ccc(C(Oc4ccc5c(c4)CN(C(=N)N)CC5)C(=O)O)cc3)C2)C1 (some centres not stated)"
  ANSWER_LABEL: "FALSE"
- MOLECULE: "CCOC(=O)C(Oc1ccc2c(c1)CN(C(=N)N)CC2)c1ccc(O[C@H]2CCN(C(=N)N)C2)cc1 (some centres not stated)"
  ANSWER_LABEL: "TRUE"
- MOLECULE: "CC(=O)N1CCC(Oc2ccc(C(Oc3ccc4c(c3)CN(C(=N)N)CC4)C(=O)O)cc2)CC1 (configuration not stated)"
  ANSWER_LABEL: "FALSE"
- MOLECULE: "C=CCOC(=O)N1CC[C@H](Oc2ccc(C(Oc3ccc4c(c3)CN(C(=N)N)CC4)C(=O)OCC)cc2)C1 (some centres not stated)"
  ANSWER_LABEL: "FALSE"
- MOLECULE: "CC(=N)N1CCC(Oc2ccc(C(Oc3ccc4c(c3)CN(C(=N)N)CC4)C(=O)O)cc2)CC1 (configuration not stated)"
  ANSWER_LABEL: "TRUE"
- MOLECULE: "N=C(N)N1CCc2ccc(OC(C(=O)O)c3ccc(O[C@H]4CCN(C(=N)N)C4)cc3)cc2C1 (some centres not stated)"
  ANSWER_LABEL: "TRUE"
- MOLECULE: "C=CCN1CC[C@H](Oc2ccc(C(Oc3ccc4c(c3)CN(C(=N)N)CC4)C(=O)OCC)cc2)C1 (some centres not stated)"
  ANSWER_LABEL: "FALSE"
- MOLECULE: "N=C(N)N1CCc2ccc(OC(C(=O)O)c3ccc(O[C@H]4CCNC4)cc3)cc2C1 (some centres not stated)"
  ANSWER_LABEL: "FALSE"

---

# Lookup of reported ED200 keyed by entry
TARGET_OR_SYSTEM: Prothrombin (Homo sapiens)
MEASUREMENT_NOTES: The Anti-coagulant activity was tested by measuring thrombin clotting time (TT)
Type: functional

- MOLECULE: "N=C(N)N1CCc2ccc(OC(C(=O)O)c3ccc(OC4CCNCC4)cc3)cc2C1 (centres undefined)"
  ED200: "> 500 µM"
- MOLECULE: "CC(=N)N1CC[C@H](Oc2ccc(C(Oc3ccc4c(c3)CN(C(=N)N)CC4)C(=O)O)cc2)C1 (some centres undefined)"
  ED200: "> 500 µM"
- MOLECULE: "C=CCOC(=O)N1CC[C@H](Oc2ccc(C(Oc3ccc4c(c3)CN(C(=N)N)CC4)C(=O)OCC)cc2)C1 (some centres undefined)"
  ED200: "500 µM"
- MOLECULE: "N=C(N)N1CCc2ccc(OC(C(=O)O)c3ccc(O[C@H]4CCNC4)cc3)cc2C1 (some centres undefined)"
  ED200: "> 500 µM"
- MOLECULE: "COc1ccc(C(=N)N2CCC(Oc3ccc(C(Oc4ccc5c(c4)CN(C(=N)N)CC5)C(=O)O)cc3)CC2)cc1 (centres undefined)"
  ED200: "> 500 µM"
- MOLECULE: "CCOC(=O)C(Oc1ccc2c(c1)CN(C(=N)N)CC2)c1ccc(OC2CCN(C(=N)CC)CC2)cc1 (centres undefined)"
  ED200: "70 µM"
- MOLECULE: "C=CCN1CC[C@H](Oc2ccc(C(Oc3ccc4c(c3)CN(C(=N)N)CC4)C(=O)OCC)cc2)C1 (some centres undefined)"
  ED200: "240 µM"
- MOLECULE: "CCOC(=O)C(Oc1ccc2c(c1)CN(C(=N)N)CC2)c1ccc(OC2CCN(C(=N)N)CC2)cc1 (centres undefined)"
  ED200: "54 µM"
- MOLECULE: "CC(=N)N1CCC(Oc2ccc(C(Oc3ccc4c(c3)CN(C(=N)N)CC4)C(=O)O)cc2)CC1 (centres undefined)"
  ED200: "> 500 µM"
- MOLECULE: "CCOC(=O)C(Oc1ccc2c(c1)CN(C(=N)N)CC2)c1ccc(OC2CCN(C(=N)c3ccc(OC)cc3)CC2)cc1 (centres undefined)"
  ED200: "32 µM"
- MOLECULE: "N=C(N)N1CCc2ccc(OC(C(=O)O)c3ccc(OC4CCOCC4)cc3)cc2C1 (centres undefined)"
  ED200: "> 500 µM"
- MOLECULE: "CCOC(=O)C(Oc1ccc2c(c1)CN(C(=N)N)CC2)c1ccc(OC2CCN(C(C)=O)CC2)cc1 (centres undefined)"
  ED200: "200 µM"
- MOLECULE: "CC1(C)CC(=O)C=C(N2CC[C@H](Oc3ccc(C(Oc4ccc5c(c4)CN(C(=N)N)CC5)C(=O)O)cc3)C2)C1 (some centres undefined)"
  ED200: "> 500 µM"
- MOLECULE: "CCOC(=O)C(Oc1ccc2c(c1)CN(C(=N)N)CC2)c1ccc(O[C@H]2CCN(C(C)=N)C2)cc1 (some centres undefined)"
  ED200: "100 µM"
- MOLECULE: "C=CCOC(=O)N1CCC(Oc2ccc(C(Oc3ccc4c(c3)CN(C(=N)N)CC4)C(=O)OCC)cc2)CC1 (centres undefined)"
  ED200: "> 500 µM"
- MOLECULE: "CCOC(=O)C(Oc1ccc2c(c1)CN(C(=N)N)CC2)c1ccc(OC2CCOCC2)cc1 (centres undefined)"
  ED200: "500 µM"
- MOLECULE: "CC(=O)N1CCC(Oc2ccc(C(Oc3ccc4c(c3)CN(C(=N)N)CC4)C(=O)O)cc2)CC1 (centres undefined)"
  ED200: "> 500 µM"
- MOLECULE: "CCOC(=O)C(Oc1ccc2c(c1)CN(C(=N)N)CC2)c1ccc(O[C@H]2CCN(C(=N)N)C2)cc1 (some centres undefined)"
  ED200: "300 µM"
- MOLECULE: "CCOC(=O)C(Oc1ccc2c(c1)CN(C(=N)N)CC2)c1ccc(OC2CCNCC2)cc1 (centres undefined)"
  ED200: "71 µM"
- MOLECULE: "N=C(N)N1CCC(Oc2ccc(C(Oc3ccc4c(c3)CN(C(=N)N)CC4)C(=O)O)cc2)CC1 (centres undefined)"
  ED200: "> 500 µM"
- MOLECULE: "CCOC(=O)C(Oc1ccc2c(c1)CN(C(=N)N)CC2)c1ccc(OC2CCN(C(C)=N)CC2)cc1 (centres undefined)"
  ED200: "53 µM"
- MOLECULE: "N=C(N)N1CCc2ccc(OC(C(=O)O)c3ccc(O[C@H]4CCN(C(=N)N)C4)cc3)cc2C1 (some centres undefined)"
  ED200: "> 500 µM"
- MOLECULE: "CCOC(=O)C(Oc1ccc2c(c1)CN(C(=N)N)CC2)c1ccc(O[C@H]2CCN(C3=CC(=O)CC(C)(C)C3)C2)cc1 (some centres undefined)"
  ED200: "90 µM"
- MOLECULE: "CCOC(=O)C(Oc1ccc2c(c1)CN(C(=N)N)CC2)c1ccc(O[C@H]2CCNC2)cc1 (some centres undefined)"
  ED200: "140 µM"
